All figures here come from patent US6403604B1.

method notes: in vivo
reported conditions: C3H/HeJ, mouse, in vivo, ip
measurement label: MTD at 45 days (mg/kg)
Enter your answer as a number in mg/kg; do not include the unit.

Any idea what MTD at 45 days was measured for `CC[C@@]1(O)C(=O)OCc2c1cc1n(c2=O)Cc2cc3ccccc3nc2-1` ?
12
